Listed below: Cmax values for each entry.
Protocol Notes: Cmax in Sprague-Dawley rat at 15 mg/kg, po
Type: ADME, organism-based
Design: dose 15 mg/kg, route oral
Experimental Context: in vivo

Line Notation	Cmax (µg/mL)
C=C[C@]1(C)C[C@@H](OC(=O)CSc2nnc(N)s2)[C@]2(C)[C@H](C)CC[C@]3(CCC(=O)[C@H]32)[C@@H](C)[C@@H]1O	3.07
C=C[C@]1(C)C[C@@H](OC(=O)CSc2nnc(NC(=O)CN3CCCCC3)s2)[C@]2(C)[C@H](C)CC[C@]3(CCC(=O)[C@H]32)[C@@H](C)[C@@H]1O	4.65

---

Listed below: CL/F values for each entry.
Protocol Notes: Clearance in Sprague-Dawley rat at 15 mg/kg, po
Type: ADME, organism-based
Parameters: dose 15 mg/kg, route oral
Experimental Context: in vivo
Attribute Measured: CL/F (mL/min/kg)

Line Notation	Attribute Measured	Value Measured
C=C[C@]1(C)C[C@@H](OC(=O)CSc2nnc(NC(=O)CN3CCCCC3)s2)[C@]2(C)[C@H](C)CC[C@]3(CCC(=O)[C@H]32)[C@@H](C)[C@@H]1O	CL/F	10.4
C=C[C@]1(C)C[C@@H](OC(=O)CSc2nnc(N)s2)[C@]2(C)[C@H](C)CC[C@]3(CCC(=O)[C@H]32)[C@@H](C)[C@@H]1O	CL/F	10.2
